The following compounds are listed with their measured pEC50 values.
tested on: NS5A chimeric genotype 1b Con1 replicon with genotype 3a S52 strain NS5A gene; experiment: Replicon assay, genotype 3a NS5A chimera; type: cell-based, HCV; conditions: Hepatitis C virus, read-out: 3a (t), transiently transfected (t) into Huh-Lunet cells; activity range
pEC50: −log10 of the molar value.

Can you look up the measured pEC50 of COC(=O)N[C@H](C(=O)N1[C@@H](C)CC[C@H]1c1nc(Cl)c(-c2ccc3c(c2)COc2cc4c(ccc5nc([C@@H]6CC[C@H](C)N6C(=O)[C@@H](NC(=O)OC)[C@@H](C)OC)[nH]c54)cc2-3)[nH]1)[C@@H](C)OC for me?
> 10.00

Same question for COC(=O)N[C@H](C(=O)N1[C@@H](C)CC[C@H]1c1ncc(-c2ccc3c(c2)COc2cc4c(ccc5nc([C@@H]6C[C@@H]7CCC[C@@H]7N6C(=O)[C@@H](NC(=O)OC)C6CCOCC6)[nH]c54)cc2-3)[nH]1)C(C)C please.
> 10.00

Same question for CC[C@H](C)C(NC(=O)OC)C(=O)N1[C@@H](C)CC[C@H]1c1nc2ccc3cc4c(cc3c2[nH]1)OCc1cc(-c2cnc([C@@H]3CC[C@H](C)N3C(=O)[C@@H](NC(=O)OC)[C@@H](C)OC)[nH]2)ccc1-4 (stereo partly drawn) please.
> 10.00

Same question for COC(=O)N[C@H](C(=O)N1[C@@H](C)CC[C@H]1c1ncc(-c2ccc3c(c2)COc2cc4c(ccc5nc([C@@H]6C[C@H](C)CN6C(=O)[C@@H](NC(=O)OC)C6CCOCC6)[nH]c54)cc2-3)[nH]1)C(C)C please.
> 10.00

More entries:
Can you look up the measured pEC50 of COC(=O)N[C@H](C(=O)N1[C@@H](C)CC[C@H]1c1nc(C)c(-c2ccc3c(c2)COc2cc4c(ccc5nc([C@@H]6CC[C@H](C)N6C(=O)[C@@H](NC(=O)OC)[C@@H](C)OC)[nH]c54)cc2-3)[nH]1)[C@@H](C)OC for me?
> 10.00

Same question for COC[C@H]1C[C@@H](c2nc3ccc4cc5c(cc4c3[nH]2)OCc2cc(-c3cnc([C@@H]4CC[C@H](C)N4C(=O)[C@@H](NC(=O)OC)C(C)C)[nH]3)ccc2-5)N(C(=O)[C@@H](NC(=O)OC)C2CCOCC2)C1 please.
9.00 to 10.00

###

system: Q30R in genotype 1a NS5A (1a Pi-Rluc replicon, Huh-7-derived cured-51 cells); assay: Replicon assay against resistance mutant 1a Q30R; assay type: cell-based, HCV; details: Hepatitis C virus, read-out: 1a Q30R (nM)
reported_property: log10(EC50) (log10 of the value in nM)
Friendly reminder: values = log10 of EC50, unit nM.

Solved cases below.
Can you look up the measured log10(EC50) of CC[C@H]1CC[C@@H](c2ncc(-c3ccc4c(c3)COc3cc5c(ccc6nc([C@@H]7CC[C@H](C)N7C(=O)[C@@H](NC(=O)OC)C(C)C)[nH]c65)cc3-4)[nH]2)N1C(=O)[C@@H](NC(=O)OC)C1CCOCC1 for me?
-1.51

Same question for CC[C@H](C)[C@H](NC(=O)OC)C(=O)N1[C@@H](C)CC[C@H]1c1nc2ccc3cc4c(cc3c2[nH]1)OCc1cc(-c2cnc([C@@H]3CC[C@H](C)N3C(=O)[C@@H](NC(=O)OC)C3CCOCC3)[nH]2)ccc1-4 please.
-1.01

Same question for COC(=O)N[C@H](C(=O)N1[C@@H](C)CC[C@H]1c1nc(Cl)c(-c2ccc3c(c2)COc2cc4c(ccc5nc([C@@H]6CC[C@H](C)N6C(=O)[C@@H](NC(=O)OC)[C@@H](C)OC)[nH]c54)cc2-3)[nH]1)[C@@H](C)OC please.
-1.12

Same question for CC[C@H]1CC[C@@H](c2ncc(-c3ccc4c(c3)COc3cc5c(ccc6nc([C@@H]7CC[C@H](C)N7C(=O)[C@@H](NC(=O)OC)C7CCOCC7)[nH]c65)cc3-4)[nH]2)N1C(=O)[C@@H](NC(=O)OC)C(C)C please.
-1.37

Same question for COC(=O)N[C@H](C(=O)N1[C@@H](C)CC[C@H]1c1ncc(-c2ccc3c(c2)COc2cc4c(ccc5nc([C@@H]6CC[C@H](C)N6C(=O)[C@@H](NC(=O)OC)[C@@H](C)OC(C)(C)C)[nH]c54)cc2-3)[nH]1)C(C)C please.
-0.24

More entries:
Can you look up the measured log10(EC50) of COC[C@H]1C[C@@H](c2ncc(-c3ccc4c(c3)c(=O)oc3cc5c(ccc6nc([C@@H]7CC[C@H](C)N7C(=O)[C@@H](NC(=O)OC)C(C)C)[nH]c65)cc34)[nH]2)N(C(=O)[C@H](NC(=O)OC)c2ccccc2)C1 for me?
-0.95

Same question for COC[C@H]1C[C@@H](c2nc(C3CC3)c(-c3ccc4c(c3)COc3cc5c(ccc6nc([C@@H]7CC[C@H](C)N7C(=O)[C@@H](NC(=O)OC)C(C)C)[nH]c65)cc3-4)[nH]2)N(C(=O)[C@H](NC(=O)OC)c2ccccc2)C1 please.
-1.32

Same question for COC[C@H]1C[C@@H](c2ncc(-c3ccc4c(c3)COc3cc5c(ccc6nc([C@@H]7C[C@H](COC)CN7C(=O)[C@H](NC(=O)OC)c7ccccc7)[nH]c65)cc3-4)[nH]2)N(C(=O)[C@H](NC(=O)OC)c2ccccc2)C1 please.
-1.24

The values you see were collected from patent US10800789B2.
